# credit: the supplement of paper PMC10065799

Listed here are sequences together with their documented phosphorylation enrichment.
- experimentalTarget: Jak2 (UniProt O60674)
- Sequence (O60674 whole entry, looked up): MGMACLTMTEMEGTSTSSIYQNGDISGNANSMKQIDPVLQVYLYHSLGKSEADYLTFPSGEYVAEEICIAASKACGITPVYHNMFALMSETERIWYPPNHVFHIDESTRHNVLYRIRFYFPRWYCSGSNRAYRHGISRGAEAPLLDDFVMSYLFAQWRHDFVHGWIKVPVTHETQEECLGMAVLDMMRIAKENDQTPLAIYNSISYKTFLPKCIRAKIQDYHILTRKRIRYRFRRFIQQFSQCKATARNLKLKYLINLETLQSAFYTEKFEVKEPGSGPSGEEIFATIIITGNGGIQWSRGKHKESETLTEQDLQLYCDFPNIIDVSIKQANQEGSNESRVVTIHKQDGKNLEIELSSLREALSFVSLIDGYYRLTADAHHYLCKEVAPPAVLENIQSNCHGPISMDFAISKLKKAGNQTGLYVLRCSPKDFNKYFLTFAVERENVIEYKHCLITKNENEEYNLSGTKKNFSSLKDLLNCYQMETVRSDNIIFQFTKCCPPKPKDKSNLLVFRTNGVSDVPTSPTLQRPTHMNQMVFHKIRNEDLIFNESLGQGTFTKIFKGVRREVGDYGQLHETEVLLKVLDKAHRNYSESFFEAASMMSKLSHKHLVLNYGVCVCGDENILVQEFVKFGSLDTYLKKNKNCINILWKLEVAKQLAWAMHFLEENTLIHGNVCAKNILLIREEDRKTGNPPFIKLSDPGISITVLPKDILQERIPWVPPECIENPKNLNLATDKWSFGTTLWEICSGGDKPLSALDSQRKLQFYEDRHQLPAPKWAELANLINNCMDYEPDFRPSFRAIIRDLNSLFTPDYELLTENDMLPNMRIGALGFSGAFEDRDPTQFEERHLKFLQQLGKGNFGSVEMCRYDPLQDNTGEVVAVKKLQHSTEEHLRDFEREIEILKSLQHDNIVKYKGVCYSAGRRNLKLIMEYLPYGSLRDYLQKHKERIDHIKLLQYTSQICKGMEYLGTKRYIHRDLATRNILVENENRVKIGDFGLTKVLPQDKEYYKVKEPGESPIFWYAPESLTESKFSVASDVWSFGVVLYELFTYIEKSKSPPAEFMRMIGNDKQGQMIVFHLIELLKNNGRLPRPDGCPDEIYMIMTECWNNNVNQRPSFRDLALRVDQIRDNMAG
- testProtocol: phosphorylation enrichment, bacterial display (enrichment ratio); higher = better substrate or ligand; peptides without Tyr show the background
Keep the answer to the number alone.

Would you please look over these solved cases?
[
  {
    "biosequence": "CEHRGCLFLAI [TEK_Y897_Y897C_YF]",
    "experimentalTarget": "Jak2 (UniProt O60674)",
    "phosphorylation enrichment": 0.797
  },
  {
    "biosequence": "AGQERYRAITS [RAB11B_Y73]",
    "experimentalTarget": "Jak2 (UniProt O60674)",
    "phosphorylation enrichment": 0.704
  },
  {
    "biosequence": "HSGLAYTMERS [GLUD1_Y512]",
    "experimentalTarget": "Jak2 (UniProt O60674)",
    "phosphorylation enrichment": 0.985
  },
  {
    "biosequence": "NTYEKYLEEEY [TF_Y669_G671E]",
    "experimentalTarget": "Jak2 (UniProt O60674)",
    "phosphorylation enrichment": 1.6
  }
]

Lookup: Give the measured phosphorylation enrichment of KKHIPCREHKS [CSNK1G2_Y206_Y206C] .
Found: 3.46

Lookup: Give the measured phosphorylation enrichment of AKLKDYFIFNK [CCDC42_Y149_YF] .
Found: 0.759

Lookup: Give the measured phosphorylation enrichment of AGADGYGFLAP [FOXL2_Y186_YF] .
Found: 0.857

Lookup: Give the measured phosphorylation enrichment of LHSEAYLKFIE [PBRM1_Y1610_YF] .
Found: 1.37

Lookup: Give the measured phosphorylation enrichment of RPGSGYTNIMR [PKLR_Y564] .
Found: 0.532

Lookup: Give the measured phosphorylation enrichment of SDFSRYARTSI [TERT_Y949_S948R_YF] .
Found: 0.502

Lookup: Give the measured phosphorylation enrichment of NFFEFYVDDPL [GCHFR_Y48_P53L_YF] .
Found: 1.07

Lookup: Give the measured phosphorylation enrichment of DVLVEYQEEGR [GNS_Y416_G418E] .
Found: 1.05

Lookup: Give the measured phosphorylation enrichment of FSGIFYKPESL [L2HGDH_Y103_H98Y_YF] .
Found: 0.935

Lookup: Give the measured phosphorylation enrichment of VRSNHYDPEED [TJP1_Y1346] .
Found: 0.974

----------
- experimentalTarget: SHP2-C SH2
- testProtocol: SH2 binding enrichment of the phosphorylated peptide, bacterial display (enrichment ratio); higher = better substrate or ligand; peptides without Tyr show the background
measuredQuantity: SH2 binding enrichment

Would you please look over these solved cases?
[
  {
    "biosequence": "CQLENYCNGGG [INS_Y108_Y103C]",
    "result": 0.888
  },
  {
    "biosequence": "QCTSDYPEHVC [SART3_Y541]",
    "result": 0.833
  },
  {
    "biosequence": "RRIHSYRGHLW [VHL_Y112]",
    "result": 0.641
  }
]

Lookup: Give recorded SH2 binding enrichment with SHP2-C SH2 for the following sequence: TFAVSYLPDMS [FLNC_Y1602_T1599A_YF]
Found: 1.01

Lookup: Give recorded SH2 binding enrichment with SHP2-C SH2 for the following sequence: KSEMSYIDGEK [SORBS1_Y485]
Found: 0.68

Lookup: Give recorded SH2 binding enrichment with SHP2-C SH2 for the following sequence: KIRDWYQRQRP [KRT14_Y151]
Found: 0.744

Lookup: Give recorded SH2 binding enrichment with SHP2-C SH2 for the following sequence: RQIQSYTCEID [DES_Y331_H326R]
Found: 0.701

Lookup: Give recorded SH2 binding enrichment with SHP2-C SH2 for the following sequence: NHRNQYQALKP [CLSPN_Y887]
Found: 1.05

Lookup: Give recorded SH2 binding enrichment with SHP2-C SH2 for the following sequence: CLAQRYLIWEC [SCN5A_Y694_R689C]
Found: 1.65

----------
- experimentalTarget: Fes (UniProt P07332)
- Sequence (P07332 whole entry, looked up): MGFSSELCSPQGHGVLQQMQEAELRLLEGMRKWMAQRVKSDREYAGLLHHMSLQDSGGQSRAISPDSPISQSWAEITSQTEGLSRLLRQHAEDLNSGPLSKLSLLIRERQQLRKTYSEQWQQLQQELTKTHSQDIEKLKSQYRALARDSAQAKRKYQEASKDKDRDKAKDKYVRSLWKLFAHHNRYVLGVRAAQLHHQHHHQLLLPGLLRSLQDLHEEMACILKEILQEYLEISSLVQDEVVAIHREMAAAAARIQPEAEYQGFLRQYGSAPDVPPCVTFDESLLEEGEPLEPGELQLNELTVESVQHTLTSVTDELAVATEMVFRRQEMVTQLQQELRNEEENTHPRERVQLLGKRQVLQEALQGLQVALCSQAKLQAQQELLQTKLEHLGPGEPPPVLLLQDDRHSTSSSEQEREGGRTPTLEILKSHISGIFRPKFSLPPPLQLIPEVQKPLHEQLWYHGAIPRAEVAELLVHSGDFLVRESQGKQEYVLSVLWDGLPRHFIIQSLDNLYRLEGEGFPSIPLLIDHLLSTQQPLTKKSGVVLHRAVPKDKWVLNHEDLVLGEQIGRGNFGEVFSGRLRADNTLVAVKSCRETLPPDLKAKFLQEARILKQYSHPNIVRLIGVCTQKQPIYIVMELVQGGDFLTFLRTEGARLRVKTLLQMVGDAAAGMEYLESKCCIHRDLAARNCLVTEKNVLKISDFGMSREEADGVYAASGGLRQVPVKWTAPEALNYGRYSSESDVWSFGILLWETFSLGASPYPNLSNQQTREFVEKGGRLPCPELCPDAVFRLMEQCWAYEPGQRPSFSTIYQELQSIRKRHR
- testProtocol: phosphorylation enrichment, bacterial display (enrichment ratio); higher = better substrate or ligand; peptides without Tyr show the background
Class (by phosphorylation enrichment) -- group A: < 0.7; group B: ≥ 0.7 and < 1; group C: ≥ 1

Known results for sequences:
[
  {
    "biosequence": "NTADFYDLFGG [PTPN11_Y63_G60A_YF]",
    "classAssignment": "group C"
  },
  {
    "biosequence": "KIEGIYARDET [RPL35A_Y34_V33I]",
    "classAssignment": "group B"
  },
  {
    "biosequence": "HNLNFYKKTTN [FGFR3_Y648_D646N_YF]",
    "classAssignment": "group B"
  }
]

Now for a further sequence.
Lookup: Categorize the following entry: ATPKGYEPDAS [OTC_Y223]
Found: group B

----------
- System: AncSZ
- testProtocol: phosphorylation enrichment, bacterial display (enrichment ratio); higher = better substrate or ligand; peptides without Tyr show the background
Listed here are sequences together with their documented phosphorylation enrichment.
Keep the answer to the number alone.

Would you please look over these solved cases?
[
  {
    "biosequence": "IITDYYVDMKF [MPP4_Y567_V562I]",
    "readoutNumber": 1.87
  },
  {
    "biosequence": "PDSVDYPKKGY [CTSK_Y121_R122P]",
    "readoutNumber": 0.917
  }
]

Lookup: Give recorded phosphorylation enrichment with AncSZ for the following sequence: EEHIPYTHMNG [INSR_Y1361]
Found: 0.797

Lookup: Give recorded phosphorylation enrichment with AncSZ for the following sequence: YGSSSYGGAGG [RPA2_Y14]
Found: 0.457

Lookup: Give recorded phosphorylation enrichment with AncSZ for the following sequence: AVLSLYASGST [ACTG2_Y144_R148S]
Found: 1.08

Lookup: Give recorded phosphorylation enrichment with AncSZ for the following sequence: ESLRPYDVMDV [KCNQ2_Y562]
Found: 1.03

Lookup: Give recorded phosphorylation enrichment with AncSZ for the following sequence: TLKVGYTEKQR [EPHA3_Y659]
Found: 0.417

Lookup: Give recorded phosphorylation enrichment with AncSZ for the following sequence: IAAEYYDNLPH [DEGS1_Y284]
Found: 1.75

----------
Listed here are sequences together with their documented SH2 binding enrichment.
- experimentalTarget: c-Src SH2
- testProtocol: SH2 binding enrichment of the phosphorylated peptide, bacterial display (enrichment ratio); higher = better substrate or ligand; peptides without Tyr show the background
Keep the answer to the number alone.

Would you please look over these solved cases?
[
  {
    "biosequence": "AQESNYRLLRR [SLC20A2_Y377]",
    "measuredQuantity": "SH2 binding enrichment",
    "readoutNumber": 0.456
  },
  {
    "biosequence": "QNTGDYCDLFG [PTPN11_Y62_Y63C_YF]",
    "measuredQuantity": "SH2 binding enrichment",
    "readoutNumber": 0.723
  },
  {
    "biosequence": "DGTGRYLCNAC [GATA5_Y208_H207R]",
    "measuredQuantity": "SH2 binding enrichment",
    "readoutNumber": 0.487
  },
  {
    "biosequence": "GETEQYVGGGG [FAT4_Y4980_A4977T]",
    "measuredQuantity": "SH2 binding enrichment",
    "readoutNumber": 0.506
  }
]

Lookup: Give the measured SH2 binding enrichment of LRRFIYRPPDR [OTOF_Y1231] .
Found: 0.725

Lookup: Give the measured SH2 binding enrichment of KLCHLYQDHMQ [WNT5A_Y86] .
Found: 1.4

----------
Listed here are sequences together with their documented phosphorylation enrichment.
- experimentalTarget: EPHB1 (UniProt P54762)
- Sequence (P54762 whole entry, looked up): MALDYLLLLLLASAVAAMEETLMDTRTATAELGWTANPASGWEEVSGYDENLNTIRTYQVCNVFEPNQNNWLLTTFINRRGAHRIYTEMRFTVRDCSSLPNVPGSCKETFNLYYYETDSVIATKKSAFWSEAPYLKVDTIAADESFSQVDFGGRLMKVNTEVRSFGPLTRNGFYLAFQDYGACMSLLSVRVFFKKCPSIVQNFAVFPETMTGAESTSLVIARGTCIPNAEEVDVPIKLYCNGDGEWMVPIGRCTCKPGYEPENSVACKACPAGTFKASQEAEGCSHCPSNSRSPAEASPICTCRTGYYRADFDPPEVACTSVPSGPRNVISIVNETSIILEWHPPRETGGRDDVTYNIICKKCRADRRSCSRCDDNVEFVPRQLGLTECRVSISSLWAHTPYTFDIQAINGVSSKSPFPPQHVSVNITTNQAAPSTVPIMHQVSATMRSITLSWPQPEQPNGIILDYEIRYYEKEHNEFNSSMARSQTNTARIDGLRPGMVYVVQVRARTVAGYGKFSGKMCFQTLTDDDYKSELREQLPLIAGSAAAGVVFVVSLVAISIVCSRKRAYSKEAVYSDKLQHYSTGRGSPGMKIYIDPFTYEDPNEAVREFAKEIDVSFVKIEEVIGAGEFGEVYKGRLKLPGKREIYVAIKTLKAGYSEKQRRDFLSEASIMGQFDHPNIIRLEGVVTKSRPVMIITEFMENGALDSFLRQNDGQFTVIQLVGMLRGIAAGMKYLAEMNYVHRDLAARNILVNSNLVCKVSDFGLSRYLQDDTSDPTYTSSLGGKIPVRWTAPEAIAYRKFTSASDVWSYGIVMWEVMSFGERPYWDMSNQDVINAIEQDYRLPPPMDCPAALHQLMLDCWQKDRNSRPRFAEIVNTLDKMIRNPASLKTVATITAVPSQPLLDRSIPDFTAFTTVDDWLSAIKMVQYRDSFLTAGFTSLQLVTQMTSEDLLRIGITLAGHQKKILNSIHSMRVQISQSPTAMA
- testProtocol: phosphorylation enrichment, bacterial display (enrichment ratio); higher = better substrate or ligand; peptides without Tyr show the background
Keep the answer to the number alone.

Would you please look over these solved cases?
[
  {
    "biosequence": "KLQQWYREPRS [GPI_Y17_H20P]",
    "experimentalTarget": "EPHB1 (UniProt P54762)",
    "readoutNumber": 0.44
  },
  {
    "biosequence": "RSAGKYDVYLI [MECP2_Y120]",
    "experimentalTarget": "EPHB1 (UniProt P54762)",
    "readoutNumber": 0.525
  },
  {
    "biosequence": "HLLRIYFDITD [MMP27_Y307_W304L_YF]",
    "experimentalTarget": "EPHB1 (UniProt P54762)",
    "readoutNumber": 1.53
  }
]

Lookup: Give the measured phosphorylation enrichment of KSAAIYNPVIY [RHO_Y301] .
Found: 0.805

Lookup: Give the measured phosphorylation enrichment of NTGDDYDLFGG [PTPN11_Y63_Y62D_YF] .
Found: 0.586

Lookup: Give the measured phosphorylation enrichment of TEQMAYCPIQC [SHC4_Y403] .
Found: 0.434

Lookup: Give the measured phosphorylation enrichment of YGSSSYRGAGG [RPA2_Y14_G15R] .
Found: 0.393

Lookup: Give the measured phosphorylation enrichment of PLDGGYFTLQI [TP53_Y327_E326G] .
Found: 1.2

Lookup: Give the measured phosphorylation enrichment of LLANAYIFVVQ [L1CAM_Y418_YF] .
Found: 0.757

Lookup: Give the measured phosphorylation enrichment of VKANTYENYWP [GATM_Y100_K102N] .
Found: 7.05

Lookup: Give the measured phosphorylation enrichment of VMSGPYELKAL [IL1B_Y140] .
Found: 0.303

Lookup: Give the measured phosphorylation enrichment of LWEGSYGKVKE [STK11_Y60_G56W] .
Found: 0.476

Lookup: Give the measured phosphorylation enrichment of FRSSLYSLMET [MYO5C_Y633_L634S] .
Found: 4.17

Lookup: Give the measured phosphorylation enrichment of DLLMQHPKAQG [FAM83C_Y600_Y600H] .
Found: 0.515
